meta.source: patent US9133207B2

Test system: H9 (acute lymphoblastic leukemia, ALL)
Assay method text: Leukemia cell growth inhibition, MTT, 72 h (Example 5)
Assay type: cell-based, human
Condition notes: Homo sapiens; 72 h, MTT
Rule for this label: rule met means IC90 is less than 5 µg/mL; rule not met means IC90 is at least 5 µg/mL.

Record COc1ccc2cc1Oc1ccc(cc1)C[C@H]1c3cc(c(OC)cc3CCN1C)Oc1c(OC)c(OC)c(CN3CC=CC3)c3c1[C@H](C2)N(C)CC3 [BS-TE-329] : is its IC90 strictly below 5 µg/mL?
rule met

IC90 under 5 µg/mL? Item: COc1ccc2cc1Oc1ccc(cc1)C[C@H]1c3cc(c(OC)cc3CCN1C)Oc1c(OC)c(OC)c(CN3CCN(CCO)CC3)c3c1[C@H](C2)N(C)CC3 [BS-TE-334]
rule met

Input CCOCc1c2c3c(c(OC)c1OC)Oc1cc4c(cc1OC)CCN(C)[C@H]4Cc1ccc(cc1)Oc1cc(ccc1OC)C[C@@H]3N(C)CC2 [BS-TE-419] ; condition: IC90 strictly below 5 µg/mL. Does it hold?
rule not met

Item COc1ccc2cc1Oc1ccc(cc1)C[C@H]1c3cc(c(OC)cc3CCN1C)Oc1c(OC)c(OC)c(CNCc3ccccn3)c3c1[C@H](C2)N(C)CC3 [BS-TE-352] : IC90 beneath 5 µg/mL, strictly?
rule met

Lab note: confirm whether the reported IC90 for this molecule is below 5 µg/mL, equality not counting. molecule: COc1ccc2cc1Oc1ccc(cc1)C[C@H]1c3cc(c(OC)cc3CCN1C)Oc1c(OC)c(OC)c(CN3CCSCC3)c3c1[C@H](C2)N(C)CC3 [BS-TE-328]
rule met

Strictly below 5 µg/mL: is that where IC90 of COc1ccc2cc1Oc1ccc(cc1)C[C@H]1c3cc(c(OC)cc3CCN1C)Oc1c(OC)c(OC)c(COCc3cccnc3)c3c1[C@H](C2)N(C)CC3 [BS-TE-411] sits?
rule met

Given COc1ccc2cc1Oc1ccc(cc1)C[C@H]1c3cc(c(OC)cc3CCN1C)Oc1c(OC)c(OC)c(CNCC(C)O)c3c1[C@H](C2)N(C)CC3 (stereo partly shown) [BS-TE-315] , is recorded IC90 strictly lower than 5 µg/mL?
rule met

Could you please tell me whether IC90 recorded for COc1ccc2cc1Oc1ccc(cc1)C[C@H]1c3cc(c(OC)cc3CCN1C)Oc1c(OC)c(OC)c(COCc3ccc(F)cc3)c3c1[C@H](C2)N(C)CC3 [BS-TE-408] is less than 5 µg/mL?
rule met

I wonder whether COc1ccc2cc1Oc1ccc(cc1)C[C@H]1c3cc(c(OC)cc3CCN1C)Oc1c(OC)c(OC)c(COC(=O)c3ccco3)c3c1[C@H](C2)N(C)CC3 [BS-TE-216] has IC90 below 5 µg/mL. Can you tell?
rule not met

----------
System: A549 (human lung cancer)
Assay method text: Solid tumor cell growth inhibition, MTT, 72 h (Example 7)
Format: cell-based
Condition notes: Homo sapiens; 72 h, MTT, A549
Can you tell me IC90 for the items I'm about to list?
Answer format: numeric, µg/mL implied, no suffix.

Query COc1ccc2cc1Oc1ccc(cc1)C[C@H]1c3cc(c(OC)cc3CCN1C)Oc1c(OC)c(OC)c(COCc3ccsc3)c3c1[C@H](C2)N(C)CC3 yields IC90 of 5.61

Please fill in: IC90 reported for COc1ccc2cc1Oc1ccc(cc1)C[C@H]1c3cc(c(OC)cc3CCN1C)Oc1c(OC)c(OC)c(Cn3cccn3)c3c1[C@H](C2)N(C)CC3 = 16

Recorded result, COc1ccc2cc1Oc1ccc(cc1)C[C@H]1c3cc(c(OC)cc3CCN1C)Oc1c(OC)c(OC)c(CN3CCC(N(C)C)CC3)c3c1[C@H](C2)N(C)CC3 , IC90: 9.8

Reported IC90 for COc1ccc2cc1Oc1ccc(cc1)C[C@H]1c3cc(c(OC)cc3CCN1C)Oc1c(OC)c(OC)c(COCCn3ccnc3)c3c1[C@H](C2)N(C)CC3 was 11

response.value for COc1ccc2cc1Oc1ccc(cc1)C[C@H]1c3cc(c(OC)cc3CCN1C)Oc1c(OC)c(OC)c(CN3CCN(C(C)C)CC3)c3c1[C@H](C2)N(C)CC3 (field: IC90) = 11

----------
Test system: PANC-1 (pancreatic cancer)
Assay method text: Solid tumor cell growth inhibition, MTT, 72 h (Example 7)
Assay type: cell-based, human
Condition notes: Homo sapiens; 72 h, MTT, PANC-1
Experimental: […] Obtaining 4000 well-growing human solid tumor cells and inoculating them into wells of a 96-well cell culture plate. […] Then the viable cell concentration is determined by the MTT method and the cell viability (%) after drug treatment is calculated. […]
Measurement type: IC90 (µg/mL)
Numbers only; they are read as µg/mL.

Value (IC90, PANC-1 (pancreatic cancer)) for record COc1ccc2cc1Oc1ccc(cc1)C[C@H]1c3cc(c(OC)cc3CCN1C)Oc1c(OC)c(OC)c(CN3CCCCC3)c3c1[C@H](C2)N(C)CC3 = 8.22

Measured on PANC-1 (pancreatic cancer), COc1ccc2cc1Oc1ccc(cc1)C[C@H]1c3cc(c(OC)cc3CCN1C)Oc1c(OC)c(OC)c(CN(C)[C@@H](C)c3ccccc3)c3c1[C@H](C2)N(C)CC3 has a documented IC90 of 4.18

// compound COc1ccc2cc1Oc1ccc(cc1)C[C@H]1c3cc(c(OC)cc3CCN1C)Oc1c(OC)c(OC)c(CN3CCC(O)CC3)c3c1[C@H](C2)N(C)CC3 , assay PANC-1 (pancreatic cancer), IC90 value: 14.7

----------
Test system: A549 (human lung cancer)
Assay method text: Solid tumor cell growth inhibition, MTT, 72 h (Example 7)
Type: cell-based
Condition notes: Homo sapiens; 72 h, MTT, A549
Measurement type: IC90 (µg/mL)
API: value field is a number in µg/mL; no unit string.

Sample COc1ccc2cc1Oc1ccc(cc1)C[C@H]1c3cc(c(OC)cc3CCN1C)Oc1c(OC)c(OC)c(COCc3cccnc3)c3c1[C@H](C2)N(C)CC3 ; IC90 observed: 15.5

IC90 recorded for this compound, COc1ccc2cc1Oc1ccc(cc1)C[C@H]1c3cc(c(OC)cc3CCN1C)Oc1c(OC)c(OC)c(COCCOc3ccccc3)c3c1[C@H](C2)N(C)CC3 , is 4.79

Reported IC90 for COc1ccc2cc1Oc1ccc(cc1)C[C@H]1c3cc(c(OC)cc3CCN1C)Oc1c(OC)c(OC)c(COCc3ccc(F)cc3)c3c1[C@H](C2)N(C)CC3 was 7.05

In plain terms, CCOCc1c2c3c(c(OC)c1OC)Oc1cc4c(cc1OC)CCN(C)[C@H]4Cc1ccc(cc1)Oc1cc(ccc1OC)C[C@@H]3N(C)CC2 has a documented IC90 of 9.75

Kindly note the recorded IC90 for COc1ccc2cc1Oc1ccc(cc1)C[C@H]1c3cc(c(OC)cc3CCN1C)Oc1c(OC)c(OC)c(COC(C)=O)c3c1[C@H](C2)N(C)CC3 , which is 14.2

----------
Tested on: H9 (acute lymphoblastic leukemia, ALL)
Assay method text: Leukemia cell growth inhibition, MTT, 72 h (Example 5)
Assay type: cell-based, human
Condition notes: Homo sapiens; 72 h, MTT
Measurement type: IC90 (mg/L)
The answer is to be given in mg/L; state only the numeric part.

Reported H9 (acute lymphoblastic leukemia, ALL) IC90 for item COCC(C)OCc1c2c3c(c(OC)c1OC)Oc1cc4c(cc1OC)CCN(C)[C@H]4Cc1ccc(cc1)Oc1cc(ccc1OC)C[C@@H]3N(C)CC2 (stereo partly shown) [BS-TE-406] was 3.41

The measured IC90 that COc1ccc2cc1Oc1ccc(cc1)C[C@H]1c3cc(c(OC)cc3CCN1C)Oc1c(OC)c(OC)c(COCCOc3ccccc3)c3c1[C@H](C2)N(C)CC3 [BS-TE-402] showed for H9 (acute lymphoblastic leukemia, ALL) is 1.25

Measured IC90 (H9 (acute lymphoblastic leukemia, ALL)), entry COc1ccc2cc1Oc1ccc(cc1)C[C@H]1c3cc(c(OC)cc3CCN1C)Oc1c(OC)c(OC)cc3c1[C@H](C2)N(C)CC3 [TTD, reference compound] : 6.4

Bench note, H9 (acute lymphoblastic leukemia, ALL): COc1ccc2cc1Oc1ccc(cc1)C[C@H]1c3cc(c(OC)cc3CCN1C)Oc1c(OC)c(OC)c(COCc3ccsc3)c3c1[C@H](C2)N(C)CC3 [BS-TE-415] , IC90 reads 2.5

I looked up COCCCNCc1c2c3c(c(OC)c1OC)Oc1cc4c(cc1OC)CCN(C)[C@H]4Cc1ccc(cc1)Oc1cc(ccc1OC)C[C@@H]3N(C)CC2 [BS-TE-340] and its IC90 for H9 (acute lymphoblastic leukemia, ALL) was 3.23

Form field, IC90 with H9 (acute lymphoblastic leukemia, ALL), item COc1ccc2cc1Oc1ccc(cc1)C[C@H]1c3cc(c(OC)cc3CCN1C)Oc1c(OC)c(OC)c(CN3CCC(N(C)C)CC3)c3c1[C@H](C2)N(C)CC3 [BS-TE-354] : 1.25

Value (IC90, H9 (acute lymphoblastic leukemia, ALL)) for record COc1ccc2cc1Oc1ccc(cc1)C[C@H]1c3cc(c(OC)cc3CCN1C)Oc1c(OC)c(OC)c(CN3CCC(O)C3)c3c1[C@H](C2)N(C)CC3 (stereo partly shown) [BS-TE-322] = 2.19

Noted IC90 for COc1ccc2cc1Oc1ccc(cc1)C[C@H]1c3cc(c(OC)cc3CCN1C)Oc1c(OC)c(OC)c(CNC3CC3)c3c1[C@H](C2)N(C)CC3 [BS-TE-301] , tested on H9 (acute lymphoblastic leukemia, ALL): 2.12

Bench note, H9 (acute lymphoblastic leukemia, ALL): entry COc1ccc2cc1Oc1ccc(cc1)C[C@H]1c3cc(c(OC)cc3CCN1C)Oc1c(OC)c(OC)c(CN3CCC(C#N)CC3)c3c1[C@H](C2)N(C)CC3 [BS-TE-323] , its IC90 = 2.13

The reported H9 (acute lymphoblastic leukemia, ALL) IC90 of COc1ccc2cc1Oc1ccc(cc1)C[C@H]1c3cc(c(OC)cc3CCN1C)Oc1c(OC)c(OC)c(CN(C)[C@@H](C)c3ccccc3)c3c1[C@H](C2)N(C)CC3 [BS-TE-317] is 1.11
